Assay: Viability qHTS for spleen associated tyrosine kinase inhibitor (SYKi) drug resistant MV4-11 cells (AID 1963824); further: nearly all actives have a fitted effect of over 35% in size
Conditions: SYKi-resistant MV4-11 viability, CellTiter-Glo, 72 h; series mostly up to 45 µM
Inconclusive results are not listed. The source made the active and inactive calls. The call rests on the fitted dose curve; in most records, active means well fitted cell-killing curve with a large enough effect; inconclusive means small, poorly fitted or top-dose-only effect, or effect the other way; inactive means no such curve, though single readings can be large or run the other way.
Answer with one of the outcomes YES (active), NO (inactive)

Prompt: Recorded test call requested for "OCc1ccc(O[C@@H]2O[C@H](CO)[C@@H](O)[C@H](O)[C@H]2O)cc1"
Completion: NO

Prompt: Recorded test call requested for CC(=O)N(CC(O)CO)c1c(I)c(C(=O)NCC(O)CO)c(I)c(C(=O)NCC(O)CO)c1I (stereo not given)
Completion: NO

Prompt: Recorded test call requested for "Cc1ccc(S(=O)(=O)Nc2cc(C(F)(F)F)ccc2C(=O)Nc2nc(-c3ccccc3)cs2)cc1"
Completion: YES

Prompt: Recorded test call requested for CC12CC34CC(O)C5C(CO)(CO)CC(=O)CC5(C)C3CC1C2C4 (stereo not given)
Completion: NO

Continue with the next compound.
Prompt: Recorded test call requested for "Cc1ncc(CO)c(C=O)c1O"
Completion: NO

###

Quick reference: activity (max response) of the listed items.
Assay: Cellular viability qHTS for adrenocortical cancer (ACC) cell line SW-13 (AID 1963989); further: nearly all actives have a fitted effect of over 65% in size;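 on activity (max response): cells grown in serum-free medium with ITS supplement; on the % scale 0 is the no-effect control and ±100 the full control effect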
Details: SW-13 ACC cells viability, CellTiter-Glo, 48 h; hits give low values
Source text: PI: Naris Nilubol, MD Surgical Oncology Program, National Cancer Institute (NCI) National Institute of Health (NIH), Bethesda, Maryland Adrenocortical cancer (ACC) is a rare malignancy with poor survival outcomes and few treatment options. Currently, mitotane is the only FDA-approved therapy for ACC. […] Through a quantitative high-throughput drug screen (qHTS), we identified auranofin (AF), a thioredoxin reductase (TXNRD) inhibitor, as a promising candidate drug. […]
Results filed as inconclusive are left out.
Give the quantity in %, number only.

Prompt: Fill blank: measured activity (max response) of the compound "CCCC(=O)O[C@]1(C(=O)COC(=O)CC)CC[C@H]2[C@@H]3CCC4=CC(=O)CC[C@]4(C)[C@H]3[C@@H](O)C[C@@]21C" is ____.
Completion: 8.42

Prompt: Fill blank: measured activity (max response) of the compound "C[C@@]1(c2cc(-c3cncnc3)c(F)cc2F)CCSC(N)=N1" is ____.
Completion: -2.1

Prompt: Fill blank: measured activity (max response) of the compound "C[C@@H]1CCC[C@H](C)N1" is ____.
Completion: 4.32

Prompt: Fill blank: measured activity (max response) of the compound "COc1ccccc1C(=O)Nc1cc2c(cc1N1CCCCC1)n(C)c(=O)n2C" is ____.
Completion: -17.1

Prompt: Fill blank: measured activity (max response) of the compound "O=C(O)/C(S)=C/c1ccc(I)cc1" is ____.
Completion: 9.8

More entries:
Prompt: Fill blank: measured activity (max response) of the compound "C[N+](C)(C)CCCCCC[N+](C)(C)C" is ____.
Completion: 10.1

Prompt: Fill blank: measured activity (max response) of the compound "Cc1cnc(NS(=O)(=O)c2ccc(N)cc2)nc1" is ____.
Completion: 9.12

###

Experiment: Cellular viability qHTS for adrenocortical cancer (ACC) cell line SW-13 (AID 1963989); further: nearly all actives have a fitted effect of over 65% in size;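 on activity (max response): cells grown in serum-free medium with ITS supplement; on the % scale 0 is the no-effect control and ±100 the full control effect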
Conditions: SW-13 ACC cells viability, CellTiter-Glo, 48 h; hits give low values
Results filed as inconclusive are left out.
Quick reference: activity (max response) of the listed items.
Give the quantity in %, number only.

Prompt: Fill blank: measured activity (max response) of the molecule "CC(C)(O)CC[C@@H](O)[C@](C)(O)[C@H]1CC[C@@]2(O)C3=CC(=O)[C@@H]4C[C@@H](O)[C@@H](O)C[C@]4(C)[C@H]3CC[C@]12C" is ____.
Completion: 9.11

Prompt: Fill blank: measured activity (max response) of the molecule "CCCCOc1cc(C(=O)OCCN(CC)CC)ccc1N" is ____.
Completion: -10.3

Prompt: Fill blank: measured activity (max response) of the molecule "COc1ccc([C@@H]2CNC(=O)C2)cc1OC1CCCC1" is ____.
Completion: -15.2

Prompt: Fill blank: measured activity (max response) of the molecule "COC(=O)c1ccc(NC(C)=O)cc1OC" is ____.
Completion: -6.56

Prompt: Fill blank: measured activity (max response) of the molecule "COc1ccc(C(=O)N2CCN(CC(=O)N3CCOCC3)CC2)cc1" is ____.
Completion: 8.16

###

Experiment: Quantitative highthroughput screen to assess conditional lethalithy of NOMO1 cells grown in RPMI1640 with untreated serum (RPMI+s) (AID 1963876); further: nearly all actives have a fitted effect of over 35% in size; further: potency means the concentration at half of the fitted maximal effect;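 on viability: 100% = DMSO wells and 0% = empty wells without cells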
Details: NOMO1 AML cells in RPMI+serum, CellTiter-Glo viability, 48 h; series mostly up to 45.8 µM
Results filed as inconclusive are left out. Calls of active or inactive are those of the source. Calls come from the whole dose curve; as a rule, active = well fitted cell-killing curve with a large enough effect; inconclusive = small, poorly fitted or top-dose-only effect; inactive = flat fitted curve, though single readings scatter.
QUANTITY_KIND: Potency

Prompt: Fill blank: measured Potency of the molecule "O=C(O)Cc1cccc(OCCCN(Cc2cccc(C(F)(F)F)c2Cl)CC(c2ccccc2)c2ccccc2)c1" is ____.
Completion: inactive

Prompt: Fill blank: measured Potency of the molecule Nc1nc(=O)n([C@H]2CSC(CO)O2)cc1F (stereo partly drawn) is ____.
Completion: inactive

Prompt: Fill blank: measured Potency of the molecule "Cc1cn([C@H]2C[C@H](N=[N+]=[N-])[C@@H](CO)O2)c(=O)[nH]c1=O" is ____.
Completion: 1.32 µM (active)

Prompt: Fill blank: measured Potency of the molecule "CCN(C)C(=O)Oc1cccc([C@H](C)N(C)C)c1" is ____.
Completion: inactive

Prompt: Fill blank: measured Potency of the molecule "CC1(C)[C@H]2CC[C@]3(C)[C@@H](C(=O)C=C4[C@@H]5C[C@@](C)(C(=O)O)CC[C@]5(C)CC[C@]43C)[C@@]2(C)CC[C@@H]1O" is ____.
Completion: inactive

More entries:
Prompt: Fill blank: measured Potency of the molecule CC(=O)c1cnc2ccc(-c3cc(Cl)c(O)c(Cl)c3)nc2c1NC1CCC(CN(C)C)CC1 (stereo not drawn) is ____.
Completion: 0.132 µM (active)

Prompt: Fill blank: measured Potency of the molecule "CC(=O)O[C@H]1C[C@@H]2CC[C@H]3[C@H]4C[C@H]([N+]5(C)CCCCC5)[C@@H](OC(C)=O)[C@@]4(C)CC[C@@H]3[C@@]2(C)C[C@H]1N1CCCCC1" is ____.
Completion: inactive

###

Experiment: Quantitative highthroughput screen to assess conditional lethalithy of SEM cells grown in RPMI1640 with unreated serum (RPMI+s) (AID 1963883); further: nearly all actives have a fitted effect of over 35% in size;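 on viability: 100% = DMSO wells and 0% = empty wells without cells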
Settings: SEM B-ALL cells, CellTiter-Glo viability, 48 h; series mostly up to 45.8 µM
Inconclusive results are not listed. Activity calls are given as the source filed them. The call rests on the fitted dose curve; in most records, active means well fitted cell-killing curve with a large enough effect; inconclusive means small, poorly fitted or top-dose-only effect, or effect the other way; inactive means no such curve, though single readings can be large or run the other way.
Answer with one of the outcomes class 1 for active, class 0 for inactive

Use these answered entries as a reference point.
Prompt: Recorded test call requested for "Cn1c(=O)c(-c2c(Cl)cccc2Cl)cc2cnc(Nc3cccc(C(=O)O)c3)nc21"
Completion: class 1

Prompt: Recorded test call requested for Cc1ccccc1C(C(=O)NC1CCCCC1)N(C(=O)Cn1ccnc1C)c1cccc(F)c1 (stereo not given)
Completion: class 0

Prompt: Recorded test call requested for "O=C(CCCCCCC(=O)Nc1ccccc1)NO"
Completion: class 1

More entries:
Prompt: Recorded test call requested for "O=C(Cc1ccc(-c2ccc(OCCN3CCOCC3)cc2)cn1)NCc1ccccc1"
Completion: class 1

Prompt: Recorded test call requested for O=C1C(CCC(O)c2ccc(F)cc2)C(c2ccc(O)cc2)N1c1ccc(F)cc1 (stereo not given)
Completion: class 0

Prompt: Recorded test call requested for "CC1CCN(c2cc(N3CCN(C)CC3)ccc2NC(=O)c2cc(C#N)c[nH]2)CC1"
Completion: class 0

Prompt: Recorded test call requested for CC1Cc2ccccc2N1NC(=O)c1ccc(Cl)c(S(N)(=O)=O)c1 (stereo not given)
Completion: class 0

Prompt: Recorded test call requested for "Oc1ccc(C2=Cc3ccc(O)cc3OC2)cc1"
Completion: class 1

Prompt: Recorded test call requested for "CN1CCN(CCCN2c3ccccc3Sc3ccc(C(F)(F)F)cc32)CC1"
Completion: class 0

Prompt: Recorded test call requested for "OC[C@H]1O[C@@H](Oc2ccc(O)cc2)[C@H](O)[C@@H](O)[C@H]1O"
Completion: class 0

###

Experiment: Cellular viability qHTS for adrenocortical cancer (ACC) cell line SW-13 (AID 1963989); further: nearly all actives have a fitted effect of over 65% in size; further: potency means the concentration at half of the fitted maximal effect
Details: SW-13 ACC cells viability, CellTiter-Glo, 48 h
Inconclusive results are not listed. Calls of active or inactive are those of the source. Calls follow the shape of the dose curve; as a rule, active = well fitted cell-killing curve with a large enough effect; inconclusive = small, poorly fitted or top-dose-only effect; inactive = flat fitted curve, though single readings scatter.
Quick reference: Potency of the listed items.

Prompt: Fill blank: measured Potency of the molecule "COc1cc(/C=C/C(=O)O[C@H]2CC[C@]34C[C@]35CC[C@]3(C)[C@@H]([C@H](C)CCC=C(C)C)CC[C@@]3(C)[C@@H]5CC[C@H]4C2(C)C)ccc1O" is ____.
Completion: 14.6 µM (active)

More entries:
Prompt: Fill blank: measured Potency of the molecule "CNCCn1c(=O)c2cc(OC)c(OC)cc2c2cnc3cc4c(cc3c21)OCO4" is ____.
Completion: 0.0422 µM (active)

Prompt: Fill blank: measured Potency of the molecule "Cc1cc(Nc2cc(N3CCN(C)CC3)nc(/C=C/c3ccccc3)n2)n[nH]1" is ____.
Completion: 25.1 µM (active)

Prompt: Fill blank: measured Potency of the molecule "CCN(CC)CCNC(=O)c1c(C)[nH]c(/C=C2\C(=O)Nc3ccc(F)cc32)c1C" is ____.
Completion: 18.4 µM (active)
